- System: UACC-62 melanoma
- assayRemarks: NCI-60 one-dose screen, 48 h
- conditionSet: 10 µM unless noted
This is part of a sample that, as a whole, favours compounds with a hit. Of some 83,000 tested, about 20% had one in any assay. Active and inactive are the calls of the source. The calls were made as follows: active = growth percent below 10; inactive = the rest.
Outcomes: y = active, n = inactive

>  <compound>
CC(=O)c1ccc2c3c(n(C)c2c1)CCCC3

>  <discreteLabel>
n

$$$$
>  <compound>
CC(C)[O-].CC(C)[O-].CN(CCN(C)Cc1cc(F)cc(F)c1[O-])Cc1cc(F)cc(F)c1[O-].[Ti+4]

>  <discreteLabel>
y

$$$$
>  <compound>
c1csc([C@@H]2C[C@@H]3Cc4ccc5ccccc5c4N2O3)c1

>  <discreteLabel>
n

$$$$
>  <compound>
O=C1c2nsnc2C(=O)c2c(F)c(F)c(F)c(F)c21

>  <discreteLabel>
y

$$$$
>  <compound>
CCCCCCCCSc1ncnc2c1ncn2CO

>  <discreteLabel>
n

$$$$
>  <compound>
CCCCCCCC/C=C\CCCCCCCCOc1ccccc1CC(=O)NCC[N+]1(C)CCCC1

>  <discreteLabel>
n

$$$$
>  <compound>
C=C(C)[C@H]1CC/C(C)=C/CC[C@]2(C)O[C@H]2CC/C(COC(C)=O)=C\C1=O

>  <discreteLabel>
n

$$$$
>  <compound>
O=C1Cc2cc(CCn3cncn3)c(Cl)cc2N1

>  <discreteLabel>
n

$$$$
>  <compound>
CC1CC(C)/C(=N/NC(N)=O)C(C(O)CC2CCC(=O)NC2=O)C1 (configuration not stated)

>  <discreteLabel>
n

$$$$
>  <compound>
CN(C)CCCN1c2nc3ccccc3cc2Sc2cc3ccccc3nc21

>  <discreteLabel>
y

$$$$
>  <compound>
O=C(Nc1ccc(Cl)cc1Cl)Nc1ccc(-c2cccnc2)cc1N1CCC(CO)CC1

>  <discreteLabel>
n

$$$$
>  <compound>
Clc1ccc(-c2nc(-c3cccs3)no2)c(Cl)c1

>  <discreteLabel>
n

$$$$
>  <compound>
COc1ccc(OC)c(NC(=O)c2cc3oc4ccccc4c3cc2O)c1

>  <discreteLabel>
n

$$$$
>  <compound>
O=C(C=C=Nc1ccccc1)C(=O)N=C=Cc1ccccc1

>  <discreteLabel>
n

$$$$
>  <compound>
O=C(NCCCO)c1cc(Cl)ccc1O

>  <discreteLabel>
y

$$$$
>  <compound>
COc1c(C)c2c(c(O)c1C/C=C(\C)CCC(=O)OCCN1CCOCC1)C(=O)OC2

>  <discreteLabel>
n

$$$$
>  <compound>
Nc1ccc2c3c(cccc13)-c1ccccc1-2

>  <discreteLabel>
n

$$$$
>  <compound>
O=[N+]([O-])c1ccc(N/N=C/c2c(O)ccc3ccccc23)nc1

>  <discreteLabel>
n

$$$$
>  <compound>
CCCCCCCC1(C)NC(=O)NC1=O (configuration not stated)

>  <discreteLabel>
n

$$$$
>  <compound>
C=C1CC[C@@H]2[C@](C)(COC(C)=O)[C@H](OC(C)=O)CC[C@@]2(C)[C@@H]1CC(Nc1ccc(S(=O)(=O)Nc2cc(C)on2)cc1)C1=CCOC1=O (some centres not stated)

>  <discreteLabel>
n

$$$$
>  <compound>
COc1cc2cn3c4ccc(O)cc4nc(N)c3c2cc1OC

>  <discreteLabel>
y

$$$$
>  <compound>
COc1ccc(-c2c(-c3cc(OC)c(OC)c(OC)c3)noc2N)cc1

>  <discreteLabel>
n

$$$$

====

Overview of reported growth across a group of molecules:
- Tested on: SF-295 CNS
- assayRemarks: NCI-60 one-dose screen, 48 h (100 = growth as untreated, 0 = no growth, -100 = all killed)
- conditionSet: 10 µM unless noted
About 83,000 compounds went through this panel and 20% of them were active in at least one assay; those are over-represented in the sample as a whole.

>  <molecule>
O=C(CSCC(=O)N/N=C/c1ccccc1O)N/N=C\c1ccccc1O

>  <unitAnnotation>
%

>  <growth>
35.5

$$$$
>  <molecule>
c1ccc(-c2nnc(Nc3nnc(-c4ccccc4)s3)s2)cc1

>  <unitAnnotation>
%

>  <growth>
102

$$$$
>  <molecule>
CCCCCCCCCCCCCCCCCc1nccn1CCO

>  <unitAnnotation>
%

>  <growth>
144

$$$$
>  <molecule>
CC[C@@H]1OC(=O)[C@H](C)[C@@H](O[C@H]2C[C@@](C)(OC)[C@@H](O)[C@H](C)O2)[C@H](C)[C@@H](O[C@@H]2O[C@H](C)C[C@H](N(C)C)[C@H]2O)[C@](C)(O)C[C@@H](C)[C@@H]2N[C@@H](COCCOC)O[C@H]([C@H]2C)[C@]1(C)O

>  <unitAnnotation>
%

>  <growth>
110

$$$$
>  <molecule>
COc1ccc(/C(=C2\O[C@@H]([C@H](O)CO)[C@H]3OC(C)(C)O[C@@H]23)c2cc(OC)c(OC)c(OC)c2)cc1O

>  <unitAnnotation>
%

>  <growth>
92.5

$$$$
>  <molecule>
O=C(Nc1ccc(Nc2ccncc2)cc1)c1ccc(Nc2ccnc3ccc([N+](=O)[O-])cc23)cc1[N+](=O)[O-]

>  <unitAnnotation>
%

>  <growth>
19.4

$$$$
>  <molecule>
COc1ccc(/C=C2\COc3ccc(O)c(O)c3C2=O)cc1OC

>  <unitAnnotation>
%

>  <growth>
72.2

$$$$
>  <molecule>
CC[N+](C)(CC)CCCC(C)Nc1ccnc2cc(Cl)ccc12 (stereo not given)

>  <unitAnnotation>
%

>  <growth>
108

$$$$
>  <molecule>
CC/C(=C\c1ccc(N(C)C)cc1)c1ccncc1

>  <unitAnnotation>
%

>  <growth>
49

$$$$
>  <molecule>
CC(C)[C@H]1CC[C@H]2[C@@H](CC[C@H]3[C@](C)(CN)CCC[C@]23C)C1

>  <unitAnnotation>
%

>  <growth>
80.5

$$$$

====

- Tested on: UACC-257 melanoma
- assayRemarks: NCI-60 one-dose screen, 48 h (100 = growth as untreated, 0 = no growth, -100 = all killed)
- conditionSet: 10 µM unless noted
About 83,000 compounds went through this panel and 20% of them were active in at least one assay; those are over-represented in the sample as a whole.

>  <molecule>
CN1C(=O)/C(=C/c2nc(-c3cccc(F)c3)n3ccccc23)c2ccccc21

>  <growth / %>
79.1

$$$$
>  <molecule>
Cc1nn(-c2ccc(Cl)cc2)c2nc3c(nc12)C(=O)C(=O)c1ccccc1-3

>  <growth / %>
69.2

$$$$
>  <molecule>
CN(CCOc1ccc(CC2SC(=O)NC2=O)cc1)c1ccccn1 (stereo unspecified)

>  <growth / %>
98.4

$$$$
>  <molecule>
c1coc([C@@H]2C[C@@H]3Cc4ccc5ccccc5c4N2O3)c1

>  <growth / %>
99.2

$$$$
>  <molecule>
CC(=O)Oc1ccc(C2OC(c3ccc4ccccc4c3OC(C)=O)=NN2C(C)=O)c(OC(C)=O)c1 (stereo unspecified)

>  <growth / %>
-28.2

$$$$
>  <molecule>
CCCOc1ccc2c(c1)CC[C@@H]1[C@@H]2CC[C@@]2(C)[C@H]1CC[C@]2(C)O

>  <growth / %>
73.8

$$$$
>  <molecule>
COc1ccc2c(c1)C(=O)c1c-2c(=O)n(CCCCCCC(=O)NO)c2ccccc12

>  <growth / %>
-6.3

$$$$
>  <molecule>
Cc1nn(-c2ccc(Cl)cc2)c2nc3c(nc12)C(=O)c1ccccc1-3

>  <growth / %>
91.5

$$$$
>  <molecule>
O=C1c2nsnc2C(=O)c2c(F)c(F)c(F)c(F)c21

>  <growth / %>
-97.3

$$$$
>  <molecule>
CC(=O)n1c2ccccc2c2ccccc21

>  <growth / %>
123

$$$$
>  <molecule>
Nc1ccccc1-c1ccc([N+](=O)[O-])cc1

>  <growth / %>
78.9

$$$$

====

- Test system: 786-0 renal
- assayRemarks: NCI-60 one-dose screen, 48 h
- conditionSet: 10 µM unless noted
- Experimental: Cells are grown in 96 well plates and exposed to the test compound for 48 hours. Compounds are tested at a single concentration, which is 10^-5 M for most compounds. The reported endpoint is percent growth (GI% or GIPRCNT), where numbers from 0 - 100% represent growth inhibition, and numbers from -100% - 0 represent cell death. For example, a value of 40 represents 60% growth inhibition. A value of 0 means no net growth occurred over the course of the experiment. […]
The panel holds about 83,000 compounds, 20% with a hit somewhere; the sample as a whole holds those more often. Calls of active or inactive are those of the source. Rule for the calls: active = growth percent below 10; inactive = the rest.
Possible outcomes: label 1 for active, label 0 for inactive

>  <molecule>
CCOC(=O)C1=C(C)N2C(=NC3=C(CCC/C3=C\c3ccc(Cl)cc3)C2c2ccc(Cl)cc2)S1 (stereo not given)

>  <subjectOfTest>
786-0 renal

>  <discreteLabel>
label 1

$$$$
>  <molecule>
Cc1cc(C)n(C(=O)c2nn(-c3ccc(Cl)cc3)cc2O)n1

>  <subjectOfTest>
786-0 renal

>  <discreteLabel>
label 0

$$$$
>  <molecule>
Nc1nonc1-c1nc2ccccc2n1CC(=O)Nc1ccc2c(c1)COC2=O

>  <subjectOfTest>
786-0 renal

>  <discreteLabel>
label 0

$$$$
>  <molecule>
COC(=O)C[C@@H]1CC=CC(=O)/C1=C(O)/C=C/c1ccccc1

>  <subjectOfTest>
786-0 renal

>  <discreteLabel>
label 1

$$$$
>  <molecule>
c1csc([C@@H]2C[C@@H]3Cc4ccc5ccccc5c4N2O3)c1

>  <subjectOfTest>
786-0 renal

>  <discreteLabel>
label 0

$$$$
>  <molecule>
CN=C(NC)N/N=C(C)\C=N\NC(=NC)NC

>  <subjectOfTest>
786-0 renal

>  <discreteLabel>
label 0

$$$$
>  <molecule>
Cc1cc2c(cc1[N+](=O)[O-])NC(CNC(C)C)CC2 (stereo not given)

>  <subjectOfTest>
786-0 renal

>  <discreteLabel>
label 0

$$$$
>  <molecule>
COc1ccc2c(c1)C(=O)c1c-2c(=O)n(CCCCCCC(=O)NO)c2ccccc12

>  <subjectOfTest>
786-0 renal

>  <discreteLabel>
label 1

$$$$
>  <molecule>
C=C(C)[C@H]1CC/C(C)=C/CC[C@]2(C)O[C@H]2CC/C(COC(C)=O)=C\C1=O

>  <subjectOfTest>
786-0 renal

>  <discreteLabel>
label 0

$$$$
>  <molecule>
COc1cc(/C=C/c2nnc(-c3cc(-c4ccccc4)n[nH]3)o2)cc(OC)c1OC

>  <subjectOfTest>
786-0 renal

>  <discreteLabel>
label 0

$$$$

This collection of values is drawn from PubChem BioAssay (NCI).
